# Tested on: HCT-116 colon
# measurement protocol: NCI tumour cell line growth inhibition, 48 h
Each entry below lists one item and its recorded TGI value.

The cases that follow already have their TGI on record.
ClCc1ccc(Cn2cnc3nc(Cl)nc(Cl)c32)cc1    1.26 µM
CC(C)=C[C@@H]1C[C@H](C)[C@H]2CC[C@H](C)[C@H]3C(=O)C(O)=C(C)C(=O)[C@]123    > 100 µM
COC(=O)C1=C(C)N(NC(=O)Nc2ccccc2)C2(N)N(NC(=O)Nc3ccccc3)C(C)=C(C(=O)OC)C12C(=O)OC (stereo unspecified)    > 100 µM
Cc1ccc(C)c(C(=O)CC2OC(O)C(Cl)C2Cl)c1 (stereo unspecified)    > 100 µM
N#Cc1c2c(c(Nc3ccc(Cl)cc3)n3c1nc1ccccc13)CCCC2    > 100 µM

Proceed to the following item.
// lookup TGI for `CCc1nc2cc(F)ccc2[nH]c1=O`
> 100 µM
